B1: COUP transcription factor 1, residues 83 to 159; numbered along this chain, P10589 (parent)
chain: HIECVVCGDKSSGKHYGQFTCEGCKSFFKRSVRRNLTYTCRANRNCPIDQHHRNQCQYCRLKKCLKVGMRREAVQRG

# Variants of: B1
# protocol details: abundance fitness (aPCA) (normalised: wild type 0, dead -1); higher = more abundant; growth selection in yeast, the domain comes from the species named
# experimental parameters: Homo sapiens
result type: abundance fitness
// return a plain number; no unit text

mutant_name=V74M result_type="abundance fitness" measured_value=-0.185
mutant_name=C64L result_type="abundance fitness" measured_value=-0.513
mutant_name=A73Q result_type="abundance fitness" measured_value=0.063
mutant_name=K66Q result_type="abundance fitness" measured_value=0.055
mutant_name=Y16F result_type="abundance fitness" measured_value=0.201

Name the reported abundance fitness value associated with the variant Q55F
0.069

Record request: abundance fitness value, item K66E
0.02
